Readings of area under dose-response curve for the listed molecules
Test system: HGGX6 (H3.3 G34R paediatric high-grade glioma line)
Test: area under dose-response curve of % growth inhibition (log2 RLU vs DMSO / staurosporine), 1e-11 to 1e-4 M (% x log10 M); higher = more growth inhibition
Answer with the value's number alone.

For orientation, consider the following solved cases.
>  <molecule>
O=C(O)CNC(=O)c1c(O)c2ccccc2n(Cc2ccccc2)c1=O

>  <area under dose-response curve>
12.6

$$$$
>  <molecule>
CO[C@H]1C[C@@H]2CC[C@@H](C)[C@@](O)(O2)C(=O)C(=O)N2CCCC[C@H]2C(=O)O[C@H]([C@H](C)C[C@@H]2CC[C@@H](OC(=O)C(C)(CO)CO)[C@H](OC)C2)CC(=O)[C@H](C)/C=C(\C)[C@@H](O)[C@@H](OC)C(=O)[C@H](C)C[C@H](C)/C=C/C=C/C=C/1C

>  <area under dose-response curve>
77.9

$$$$
>  <molecule>
O=C(c1ccc(C(=O)N2CCC(N3CCCC3)CC2)c(Nc2ccccc2)c1)N1CCC(N2CCCC2)CC1

>  <area under dose-response curve>
6.97

$$$$
>  <molecule>
CS(=O)(=O)c1ccc([C@@H](O)[C@@H](CF)NC(=O)C(Cl)Cl)cc1

>  <area under dose-response curve>
4.4

$$$$
>  <molecule>
CC(C)c1c2cc(-c3ccnc(NC4CCC(NC5CCOCC5)CC4)n3)ccc2nn1C (configuration not stated)

>  <area under dose-response curve>
210

$$$$

What area under dose-response curve appears in the records for this molecule with HGGX6? CCN(CCO)CCCC(C)Nc1ccnc2cc(Cl)ccc12 (configuration not stated) [HYDROXYCHLOROQUINE]
1.95

# returns recorded area under dose-response curve (system: HGGX6) for COc1cc([C@@H]2c3cc4c(cc3[C@@H](O[C@@H]3O[C@@H]5CO[C@@H](C)O[C@H]5[C@H](O)[C@H]3O)[C@H]3COC(=O)[C@H]23)OCO4)cc(OC)c1O [ETOPOSIDE]
25.4

Identify the measured area under dose-response curve of COc1cc2nccc(Oc3ccc(NC(=O)Nc4cc(C)on4)c(Cl)c3)c2cc1OC for HGGX6.
42.5

Fill in the recorded area under dose-response curve for this molecule, with HGGX6 as test system: Cc1ccc(C(=O)Nc2ccc(Oc3cc4cnn(C)c4cc3-c3cn[nH]c3)c(F)c2)c(=O)n1-c1ccc(F)cc1
41.1

# returns recorded area under dose-response curve (system: HGGX6) for CC(C)c1nc(N(C)S(C)(=O)=O)nc(-c2ccc(F)cc2)c1/C=C/[C@@H](O)C[C@@H](O)CC(=O)O
30.4

Form field: area under dose-response curve recorded for COCC1(CO)C(=O)C2CCN1CC2 (configuration not stated) with HGGX6 (enter value)
73.1

Look up area under dose-response curve with HGGX6 for this molecule: CC1=C(C(=O)OC(C)C)C(c2cccc([N+](=O)[O-])c2)C(C(=O)OC2CN(C(c3ccccc3)c3ccccc3)C2)=C(N)N1 (configuration not stated)
80.8

Short answer please: area under dose-response curve, HGGX6, entry Cc1sc2c(c1C)C(c1ccc(Cl)cc1)=N[C@@H](CC(=O)Nc1ccc(O)cc1)c1nnc(C)n1-2
33.7

Form: Entry = Cc1sc2c(c1C)C(c1ccc(Cl)cc1)=N[C@@H](CC(N)=O)c1nnc(C)n1-2 | System = HGGX6 | area under dose-response curve = ____
35.8

Write down the reported area under dose-response curve of N#CN=C(NCCCCCCOc1ccc(Cl)cc1)Nc1ccncc1 , test system: HGGX6.
288

Give the reported area under dose-response curve for CS[C@H]1SC[C@H]2C(=O)N(C)[C@@H](C(C)C)C(=O)OC[C@@H](NC(=O)c3cnc4ccccc4n3)C(=O)N[C@@H](C)C(=O)N(C)[C@@H]1C(=O)N(C)[C@@H](C(C)C)C(=O)OC[C@@H](NC(=O)c1cnc3ccccc3n1)C(=O)N[C@@H](C)C(=O)N2C (system: HGGX6).
337
